Tested on: OVCAR-3 ovarian
measurement_protocol: NCI-60 one-dose screen, 48 h (100 = growth as untreated, 0 = no growth, -100 = all killed)
test_context: 10 µM unless noted
This is part of a sample that, as a whole, favours compounds with a hit. Of some 83,000 tested, about 20% had one in any assay.

| input_smiles | growth [%] |
| --- | --- |
| O=C(Nc1ccc(-c2nc3ccc(NC(=O)c4ccc(Cl)cc4)cc3[nH]2)cc1)c1ccc(Cl)cc1 | -64.9 |
| COc1ccc(/C=C2/SC(=O)N(CC(=O)N3CCN(c4cc5c(cc4F)c(=O)c(C(=O)O)cn5C4CC4)CC3)C2=O)cc1 | 115 |
| O=C(Nc1ccc(Cl)cc1)N1CCN(c2ccc3nncn3n2)CC1 | -7.82 |
| O=C(Nc1ccc(I)cc1F)c1cc(Cl)ccc1O | 4.4 |
| O=C(Nc1ccc(F)cc1F)c1cc(Cl)ccc1O | 7.98 |
| CCOc1ccccc1CN1CCc2nc3cc(C(C)(C)C)[nH]n3c(=O)c2C1 | 106 |
| Cc1cc(Nc2ccc(OCc3ccccc3)cc2)nc2cc(O)ccc12 | 41.3 |
| COc1ccc(/C=C2\N=C(c3ccccc3)N(c3ccc(-c4nc5ccc(C)cc5s4)cc3)C2=O)cc1 | 72.2 |
| O=C(Nc1ccc(N2CCNCC2)cc1)c1[nH]ncc1Nc1ncnc2sc3c(c12)CCC3 | -81.7 |
| Cc1c(-c2noc(-c3ccc([N+](=O)[O-])cc3)n2)no[n+]1[O-] | 94.4 |
